- TARGET ENTITY: c-MET (Homo sapiens, UniProt P08581)
- Construct: cell line MKN45 having endogenous high expression wild type c-MET; endogenous in cells
- Sequence (P08581 25-1390): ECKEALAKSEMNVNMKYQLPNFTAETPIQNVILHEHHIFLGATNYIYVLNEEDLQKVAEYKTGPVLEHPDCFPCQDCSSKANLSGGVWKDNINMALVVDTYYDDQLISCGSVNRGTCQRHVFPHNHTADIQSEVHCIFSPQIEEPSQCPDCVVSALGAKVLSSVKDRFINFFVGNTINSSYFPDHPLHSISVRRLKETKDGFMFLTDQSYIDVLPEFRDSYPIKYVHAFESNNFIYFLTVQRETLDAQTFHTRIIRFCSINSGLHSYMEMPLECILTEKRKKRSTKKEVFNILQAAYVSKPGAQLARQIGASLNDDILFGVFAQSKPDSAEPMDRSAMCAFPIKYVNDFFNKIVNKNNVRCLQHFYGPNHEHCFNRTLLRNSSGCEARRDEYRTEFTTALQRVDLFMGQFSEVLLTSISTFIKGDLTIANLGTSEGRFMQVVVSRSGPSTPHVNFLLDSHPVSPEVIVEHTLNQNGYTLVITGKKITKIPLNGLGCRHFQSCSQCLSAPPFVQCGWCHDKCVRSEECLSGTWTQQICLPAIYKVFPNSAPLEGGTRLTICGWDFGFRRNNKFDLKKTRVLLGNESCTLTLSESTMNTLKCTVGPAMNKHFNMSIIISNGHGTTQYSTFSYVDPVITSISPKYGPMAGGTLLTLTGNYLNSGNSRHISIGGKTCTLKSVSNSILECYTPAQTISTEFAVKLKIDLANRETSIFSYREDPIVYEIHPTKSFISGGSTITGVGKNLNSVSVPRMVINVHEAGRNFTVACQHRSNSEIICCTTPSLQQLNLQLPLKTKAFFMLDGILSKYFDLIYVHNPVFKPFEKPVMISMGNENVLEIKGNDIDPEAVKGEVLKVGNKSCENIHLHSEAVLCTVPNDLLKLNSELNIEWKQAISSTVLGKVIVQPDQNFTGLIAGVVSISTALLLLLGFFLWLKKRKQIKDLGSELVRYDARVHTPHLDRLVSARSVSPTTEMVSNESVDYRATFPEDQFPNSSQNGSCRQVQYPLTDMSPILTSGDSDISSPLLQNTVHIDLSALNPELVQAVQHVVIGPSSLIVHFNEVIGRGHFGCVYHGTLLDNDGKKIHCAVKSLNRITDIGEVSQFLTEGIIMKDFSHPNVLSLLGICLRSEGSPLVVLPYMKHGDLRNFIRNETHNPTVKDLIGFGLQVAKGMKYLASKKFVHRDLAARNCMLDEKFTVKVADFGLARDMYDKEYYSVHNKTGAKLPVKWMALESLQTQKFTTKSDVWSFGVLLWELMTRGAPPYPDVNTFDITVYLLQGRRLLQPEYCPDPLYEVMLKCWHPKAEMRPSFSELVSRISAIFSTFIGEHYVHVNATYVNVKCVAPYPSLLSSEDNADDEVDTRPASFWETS
- METHOD DESCRIPTION: c-MET kinase phosphorylation in MKN45 cells (sandwich ELISA)
- APPLIED CONDITIONS: without stimulation, mean value of two testing results, read-out: IC50 values in the cell, c-MET
MEASURED ENDPOINT: pIC50
Convention used: pIC50 is expressed as -log10 of the molar concentration.

Look up pIC50: "CCOP(=O)(CN1CCC(COc2cc3nccc(Oc4ccc(NC(=O)C5(C(=O)Nc6ccc(F)cc6)CC5)cc4F)c3cc2OC)CC1)OCC"
7.77
